Test: Pharmacokinetics in MiaPaca 2 tumor-bearing mice (plasma, tumor tissue)
Assay type: in vivo
Details: female, mouse, po; Plasma, p.o. 6 mg/kg
quantity_kind: MRT (min)

INSERT INTO assay_data (molecule, reported_measurement) VALUES
  ('C=CC(=O)N1C[C@H](C)N(c2nc(=O)n(-c3c(SC)ccnc3C(C)C)c3nc(-c4c(N)ccc(Cl)c4F)c(Cl)cc23)C[C@H]1C (atropisomer, axis not shown)', 54),
  ('C=CC(=O)N1CCN(c2nc(=O)n(-c3c(C)ccnc3C(C)C)c3nc(-c4c(O)cccc4F)c(F)cc23)[C@@H](C)C1 [AMG 510, reference compound]', 48);
